molecular target: mu opiate receptor (MOR) (Rattus norvegicus); construct: from tissue; host or cells: striatum (membrane preparation); assay type: biochemical
Property name: % DAMGO + BFNA (%)

INSERT INTO results (molecule, target_or_test_system, property_name, display_unit, value_measured) VALUES
  ('COC(=O)c1ccc(S(=O)(=O)N2CCC3(CC2)OCCN3S(=O)(=O)c2ccc(C(=O)OC)cc2)cc1', 'mu opiate receptor (MOR) (Rattus norvegicus)', '% DAMGO + BFNA', '%', 472.3),
  ('COc1ccc(NC(=O)N2CCC3(CC2)OCCN3C(=O)Nc2ccc(OC)cc2)cc1 [Compound C0151M]', 'mu opiate receptor (MOR) (Rattus norvegicus)', '% DAMGO + BFNA', '%', 233.1),
  ('COc1cccc(OC)c1C(=O)CC1c2c(cc3c(c2OC)OCO3)CC[N+]1(C)C (stereo not shown)', 'mu opiate receptor (MOR) (Rattus norvegicus)', '% DAMGO + BFNA', '%', 81.8),
  ('CC(=O)c1ccc(S(=O)(=O)N2CCOC23CCN(CC2CC2)CC3)cc1 [Compound C0095M]', 'mu opiate receptor (MOR) (Rattus norvegicus)', '% DAMGO + BFNA', '%', 489.5),
  ('O=S(=O)(c1cccc(OC(F)(F)F)c1)N1CCC2(CC1)OCCN2S(=O)(=O)c1cccc(OC(F)(F)F)c1', 'mu opiate receptor (MOR) (Rattus norvegicus)', '% DAMGO + BFNA', '%', 319.4),
  ('COc1cc(CC(=O)CC2c3c(cc4c(c3OC)OCO4)CC[N+]2(C)C)cc(OC)c1OC (stereo not shown)', 'mu opiate receptor (MOR) (Rattus norvegicus)', '% DAMGO + BFNA', '%', 70.0),
  ('COc1ccc(OCC(O)CN2CC(C)OC(C)C2)cc1 (stereo not shown)', 'mu opiate receptor (MOR) (Rattus norvegicus)', '% DAMGO + BFNA', '%', 226.3),
  ('N#Cc1ccccc1S(=O)(=O)N1CCC2(CC1)OCCN2S(=O)(=O)c1ccccc1C#N', 'mu opiate receptor (MOR) (Rattus norvegicus)', '% DAMGO + BFNA', '%', 99.7),
  ('O=C(OCc1ccccc1)c1ccc(S(=O)(=O)N2CCC3(CC2)OCCN3S(=O)(=O)c2ccc(C(=O)OCc3ccccc3)cc2)cc1', 'mu opiate receptor (MOR) (Rattus norvegicus)', '% DAMGO + BFNA', '%', 666.3),
  ('O=S(=O)(c1ccc(Br)cc1)N1CCC2(CC1)OCCN2S(=O)(=O)c1ccc(Br)cc1', 'mu opiate receptor (MOR) (Rattus norvegicus)', '% DAMGO + BFNA', '%', 182.7),
  ('COc1ccc(S(=O)(=O)N2CCOC23CCCNC3)cc1 (stereo not shown) [Compound C0145M-3]', 'mu opiate receptor (MOR) (Rattus norvegicus)', '% DAMGO + BFNA', '%', 95.3),
  ('CS(=O)(=O)c1ccc(S(=O)(=O)N2CCOC23CCNCC3)cc1 [Compound C0116M]', 'mu opiate receptor (MOR) (Rattus norvegicus)', '% DAMGO + BFNA', '%', 313.4),
  ('COc1c2c(cc3c1C(CC(=O)Cc1ccc(Br)cc1)[N+](C)(C)CC3)OCO2 (stereo not shown)', 'mu opiate receptor (MOR) (Rattus norvegicus)', '% DAMGO + BFNA', '%', 120.0),
  ('COc1c2c(cc3c1C(CC(=O)c1ccncc1)[N+](C)(C)CC3)OCO2 (stereo not shown)', 'mu opiate receptor (MOR) (Rattus norvegicus)', '% DAMGO + BFNA', '%', 68.6),
  ('CC(=O)c1ccc(S(=O)(=O)N2CCOC23CCNCC3)cc1', 'mu opiate receptor (MOR) (Rattus norvegicus)', '% DAMGO + BFNA', '%', 356.4),
  ('Cc1ccc(S(=O)(=O)N2CCC3(CC2)OCCN3S(=O)(=O)c2ccc(C)cc2)cc1', 'mu opiate receptor (MOR) (Rattus norvegicus)', '% DAMGO + BFNA', '%', 52.9);

* * *

target: mu opiate receptor (MOR) (Rattus norvegicus, UniProt P33535); construct: from tissue; host or cells: striatum (membrane preparation); format: biochemical; conditions: [35S]GTPγS binding to Gαo in striatal membranes; compound 0.1 μM
Sequence (P33535 whole entry): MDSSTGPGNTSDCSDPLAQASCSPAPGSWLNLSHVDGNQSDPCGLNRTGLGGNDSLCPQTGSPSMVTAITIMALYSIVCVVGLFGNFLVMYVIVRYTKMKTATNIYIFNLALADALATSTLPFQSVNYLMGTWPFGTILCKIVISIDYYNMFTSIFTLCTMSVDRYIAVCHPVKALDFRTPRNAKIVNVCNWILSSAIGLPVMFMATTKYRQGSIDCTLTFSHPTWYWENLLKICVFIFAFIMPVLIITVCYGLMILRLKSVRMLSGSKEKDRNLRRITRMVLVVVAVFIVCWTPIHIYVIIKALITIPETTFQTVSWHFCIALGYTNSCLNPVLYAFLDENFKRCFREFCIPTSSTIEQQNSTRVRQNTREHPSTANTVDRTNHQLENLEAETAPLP
Catalogue of Concentration of FLNA-Binding Compound as Agonist 0.1 μM values
Property name: Concentration of FLNA-Binding Compound as Agonist 0.1 μM (%)

INSERT INTO measurements (molecule, target_or_test_system, value_measured) VALUES
  ('O=S(=O)(c1csc2ccccc12)N1CCC2(CC1)OCCN2S(=O)(=O)c1csc2ccccc12 [Compound C0150M]', 'mu opiate receptor (MOR) (Rattus norvegicus, UniProt P33535)', 167.1),
  ('Cc1ccc(S(=O)(=O)N2CCC3(CC2)OCCN3S(=O)(=O)c2ccc(C)cc2)cc1 [Compound C0001]', 'mu opiate receptor (MOR) (Rattus norvegicus, UniProt P33535)', 129.3),
  ('COc1ccccc1S(=O)(=O)N1CCC2(CC1)OCCN2S(=O)(=O)c1ccccc1OC [Compound C0003]', 'mu opiate receptor (MOR) (Rattus norvegicus, UniProt P33535)', 162.3),
  ('CC1CCC(C(C)C)C(OCC(O)CN2CCc3ccccc3C2)C1 (centres unmarked) [Compound A0040]', 'mu opiate receptor (MOR) (Rattus norvegicus, UniProt P33535)', 46.1),
  ('O=S(=O)(c1ccc(F)cc1)N1CCC2(CC1)OCCN2S(=O)(=O)c1ccc(F)cc1 [Compound C0029]', 'mu opiate receptor (MOR) (Rattus norvegicus, UniProt P33535)', 175.4),
  ('CC1CCC(C(C)C)C(OCC(O)CN2CC(C)OC(C)C2)C1 (centres unmarked) [Compound A3333]', 'mu opiate receptor (MOR) (Rattus norvegicus, UniProt P33535)', 170.7),
  ('CC1CCC(C(C)C)C(OCC(O)CN2CCCc3ccccc32)C1 (centres unmarked) [Compound A0068]', 'mu opiate receptor (MOR) (Rattus norvegicus, UniProt P33535)', 73.9),
  ('CC(=O)c1ccc(S(=O)(=O)N2CCC3(CC2)OCC(CCCCN(C)C)N3S(=O)(=O)c2ccc(C(C)=O)cc2)cc1 (centres unmarked) [Compound C0080M]', 'mu opiate receptor (MOR) (Rattus norvegicus, UniProt P33535)', 187.9);

* * *

molecular target: mu opiate receptor (MOR) (Rattus norvegicus, UniProt P33535); construct: from tissue; host or cells: striatum (membrane preparation); format: biochemical
Property name: % DAMGO + BFNA (%)

INSERT INTO results (compound, value_measured) VALUES
  ('CC1CCC(C)C(OCC(O)CN2CC(C)OC(C)C2)C1 (centres unmarked)', 53.7),
  ('CCN(CC)CC(O)COC1CC(C)CCC1C(C)C (centres unmarked)', 180.0),
  ('C=CCN1CCC2(CC1)OCCN2S(=O)(=O)c1ccc(OC)cc1 [Compound C0091M]', 367.3),
  ('CC(O)c1ccc(S(=O)(=O)N2CCC3(CC2)OCCN3S(=O)(=O)c2ccc(C(C)O)cc2)cc1 (centres unmarked)', 127.0),
  ('CN1CCC2(CC1)OCCN2S(=O)(=O)c1ccc(S(C)(=O)=O)cc1 [Compound C0106M]', 246.7),
  ('NS(=O)(=O)c1ccc(S(=O)(=O)N2CCC3(CC2)OCCN3S(=O)(=O)c2ccc(S(N)(=O)=O)cc2)cc1', 482.5),
  ('COc1ccc(CCC(=O)CC2c3c(cc4c(c3OC)OCO4)CCN2C)cc1 (centres unmarked)', 260.1),
  ('COc1ccc(S(=O)(=O)N2CCOC23CCN(C)CC3)cc1 [Compound C0088M]', 513.3),
  ('O=S(=O)(c1ccc(Br)cc1Br)N1CCC2(CC1)OCCN2S(=O)(=O)c1ccc(Br)cc1Br', 331.0),
  ('CC(=O)N1CCSC12CCN(S(=O)(=O)c1ccc([N+](=O)[O-])cc1)CC2', 134.1),
  ('CC1CCC(C(C)C)C(OCC(O)Cn2cccc2)C1 (centres unmarked)', 144.8),
  ('O=[N+]([O-])c1ccc(S(=O)(=O)N2CCC3(CC2)NCCO3)cc1', 277.3),
  ('CC1CN(CC(O)COc2ccccc2Br)CC(C)O1 (centres unmarked)', 120.6),
  ('COc1c2c(cc3c1C(CC(=O)c1ccc(F)c(F)c1)[N+](C)(C)CC3)OCO2 (centres unmarked)', 29.0),
  ('CC(=O)c1ccc(S(=O)(=O)N2CC(CN(C)C)OC23CCN(CC2CC2)CC3)cc1 (centres unmarked) [Compound C0128M]', 131.8),
  ('CC(=O)c1ccc(S(=O)(=O)N2CCC3(CC2)NC(=O)CN3S(=O)(=O)c2ccc(C(C)=O)cc2)cc1', 110.4),
  ('COc1ccc(C(=O)N2CCOC23CCN(S(=O)(=O)c2ccc(OC)cc2)CC3)cc1', 80.4);

Values compiled from patent US10760052B2.
